// provenance: paper PMC6522912

Target: UniProt:P17952
Sequence (P17952 whole entry): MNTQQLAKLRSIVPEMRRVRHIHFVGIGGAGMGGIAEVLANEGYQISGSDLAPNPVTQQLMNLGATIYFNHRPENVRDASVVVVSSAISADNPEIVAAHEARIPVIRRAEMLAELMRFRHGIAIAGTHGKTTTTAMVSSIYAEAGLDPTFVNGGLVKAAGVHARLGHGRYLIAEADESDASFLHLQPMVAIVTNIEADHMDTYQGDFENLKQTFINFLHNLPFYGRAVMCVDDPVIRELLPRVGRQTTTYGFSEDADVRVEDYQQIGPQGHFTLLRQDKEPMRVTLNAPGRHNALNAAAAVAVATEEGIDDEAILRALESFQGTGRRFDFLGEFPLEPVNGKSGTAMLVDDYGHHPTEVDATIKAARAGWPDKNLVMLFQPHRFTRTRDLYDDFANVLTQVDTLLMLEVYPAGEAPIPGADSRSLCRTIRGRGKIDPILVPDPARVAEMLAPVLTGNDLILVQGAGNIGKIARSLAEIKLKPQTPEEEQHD
Experiment: Malachite green inhibition assay, MurC
Type: biochemical
Settings: 0.25 h, Table S1, PKIS screening; read-out: RA [%] at 100 µM MurC
Record form. Attribute: remaining activity at 100 µM. Fill in for each entry.
Respond with the bare value in %.

### Prompt Query: remaining activity at 100 µM; subject: NC(=O)c1cccc(Nc2nccc(Nc3cccc(F)c3)n2)c1 [GW759710A]
### Response 100

### Prompt Would you kindly share the measured remaining activity at 100 µM for CCS(=O)(=O)c1ccc(OC)c(Nc2ncc(-c3cccc(OC)c3)o2)c1 [GW580509X] ?
### Response 100

### Prompt May I ask what remaining activity at 100 µM has been recorded for Cc1nnc(-c2cccc(-c3ccc(C(=O)NCC4CC4)cc3)c2)o1 [GW734508X] ?
### Response 89

### Prompt Reported remaining activity at 100 µM for CS(=O)(=O)CCNCc1ccc(-c2ccc3ncnc(Nc4ccc(OCc5cccc(C(F)(F)F)c5)cc4)c3c2)o1 [GW567808A] : what is it?
### Response 56
